tested on: HS-PSS; experiment: relative IC50 (inflection point of fitted dose-response curve, CellTox-Green cytotoxicity, 72 h; top asymptote may be below 50%); higher = less potent
Value kind: relative IC50

Worked cases, relative IC50 given:
| Molecule | Value kind | Result |
| --- | --- | --- |
| C[C@@H]1CN(Cc2ccc(F)cc2)[C@@H](C)CN1C(=O)c1cc2c(C(=O)C(=O)N(C)C)cn(C)c2cc1Cl | relative IC50 | > 10 µM |
| CC(C)(C)c1cc(NC(=O)Nc2ccc(-c3cn4c(n3)sc3cc(OCCN5CCOCC5)ccc34)cc2)no1 | relative IC50 | > 1 µM |
| CN(C)C(=O)c1cc2cnc(Nc3ccc(N4CCNCC4)cn3)nc2n1C1CCCC1 | relative IC50 | > 10 µM |
| COC(=O)c1ccc2c(c1)[nH]c1ncnc(NCCCN3CCCCC3)c12 | relative IC50 | > 10 µM |
| CN1CCC(CNc2ccc3ncc(-c4cccc(OC(F)(F)F)c4)n3n2)CC1 | relative IC50 | 2.51 µM |

# input molecule: COc1cccc2cc(-c3nc([C@H]4CC[C@H](C(=O)O)CC4)n4ncnc(N)c34)[nH]c12 ; wanted: its relative IC50 > 10 µM

Can you check CCN(c1cc(-c2ccc(CN3CCOCC3)cc2)cc(C(=O)NCc2c(C)cc(C)[nH]c2=O)c1C)C1CCOCC1 next? > 10 µM

Can you check CN(Cc1cnc2nc(N)nc(N)c2n1)c1ccc(C(=O)N[C@@H](CCC(=O)O)C(=O)O)cc1 [Methotrexate] next? > 5 µM

Can you check CS(=O)(=O)N1CCN(Cc2cc3nc(-c4cccc5[nH]ncc45)nc(N4CCOCC4)c3s2)CC1 next? > 10 µM

Can you check Oc1ccc2c(c1)CC[C@H](c1ccccc1)[C@@H]2c1ccc(OCCN2CCCC2)cc1 next? > 1 µM
